These entries and their values trace back to patent US8609836B2.

- System: A2780
- ASSAY COMMENT: Cellular proliferation assay (Alamar blue), A2780
- Assay type: cell-based
- CONDITION PARAMETERS: Homo sapiens, 10% FCS, 72 hours with compound, Alamar blue 24 h, read-out: A2780 (cellular proliferation assay, Table 4) (converted)
Each entry below carries its reported IC50.

Past entries and their recorded results:
>>> df
                           structure_string  system_under_test   result
0  CC(C)Nc1cc2cc(c1)Nc1nccc(n1)-c1ccc(cc1)CN(C)CCNC(=O)CN1CCN(CC1)C2              A2780  > 10 µM
1  COc1cc2cc(c1)Nc1nccc(n1)-c1ccc(OC)c(c1)CN(C)CCNC(=O)CN1CCN(CC1)C2              A2780  > 10 µM
2  C[C@@H]1NCc2cccc(c2)-c2ccnc(n2)Nc2ccc(N3CCOCC3)c(c2)CNC1=O              A2780  4.68 µM

Here is another molecule to look at.
### Prompt // returns reported IC50 for input `COc1ccc2cc1CN(C)CCCNC(=O)[C@@H]1CCCN1Cc1cccc(c1)Nc1nccc-2n1`
### Response > 10 µM

---

- System: A2780
- ASSAY COMMENT: Cellular proliferation assay (Alamar blue), A2780
- Type: cell-based
- CONDITION PARAMETERS: Homo sapiens, 10% FCS, 72 hours with compound, Alamar blue 24 h, read-out: A2780 (cellular proliferation assay, Table 4) (converted)
RECORDED METRIC: IC50

Solved entries (count: 6):
>>> df
                           structure_string   result
0  CN(C)CCNC(=O)c1ccc2cc1CN1CCC[C@H]1C(=O)NCc1cccc(c1)-c1ccnc(n1)N2  1.45 µM
1  CN1CCN(C)c2ccc(cn2)-c2ccnc(n2)Nc2cc(c3c(c2)OCO3)CN2CCC[C@H]2C1=O  > 10 µM
2  CN1CCNC(=O)[C@H](CO)NCc2cccc(c2)Nc2nccc(n2)-c2ccc(cc2)C1  > 10 µM
3  COc1ccc2cc1CN(C)CCCNC(=O)C1CCN(CC1)Cc1cccc(c1)Nc1nccc-2n1  > 10 µM
4  COc1ccc2cc1CN(C)CCCNC(=O)[C@@H]1CCCN1Cc1cc(cc(N3CCOCC3)c1)Nc1nccc-2n1  > 10 µM
5  COc1cc2cc(c1)Nc1nccc(n1)-c1ccc(OC)c(c1)CN(C)CCNC(=O)C1CCN(CC1)C2  > 10 µM

Attention now turns to another entry.
### Prompt Enter reported IC50 observed with A2780 for `O=C1NCc2cccc(c2)-c2ccnc(n2)Nc2cc(ccc2Cl)CN2C[C@H](O)C[C@@H]12`
### Response > 10 µM

---

- SYSTEM UNDER TEST: AuroraB (h) (Homo sapiens, UniProt Q96GD4)
- Sequence (Q96GD4 whole entry): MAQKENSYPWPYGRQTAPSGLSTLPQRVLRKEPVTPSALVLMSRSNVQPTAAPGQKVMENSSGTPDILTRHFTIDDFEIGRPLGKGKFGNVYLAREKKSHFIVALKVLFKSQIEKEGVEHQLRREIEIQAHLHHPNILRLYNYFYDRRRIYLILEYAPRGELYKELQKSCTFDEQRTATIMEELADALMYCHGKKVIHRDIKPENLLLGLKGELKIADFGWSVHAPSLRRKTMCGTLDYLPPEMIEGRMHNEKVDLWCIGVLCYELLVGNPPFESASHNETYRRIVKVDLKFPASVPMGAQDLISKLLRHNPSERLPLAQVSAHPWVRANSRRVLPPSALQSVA
- ASSAY COMMENT: Aurora-B human kinase inhibition, SPA
- Assay type: biochemical
- CONDITION PARAMETERS: read-out: AuroraB pIC50 (converted)
RECORDED METRIC: IC50 (µM)
Please state the figure in µM; there is no need to write the unit.

Some entries whose results are on file:
In [3]: df
Out[3]:
                           structure_string  recorded_number
0  CN1CCNC(=O)[C@H](CO)NCc2cc(cc(N3CCOCC3)c2)Nc2nccc(n2)-c2ccc(cc2)C1             6.03
1  COc1ccc2cc1CNCCCNC(=O)CN1CCN(CC1)Cc1cc(ccc1N1CCOCC1)Nc1nccc-2n1             4.17

// switching to the query compound
### Prompt For the compound `COc1cc2cc(c1)Nc1nccc(n1)-c1ccc(OC)c(c1)CN(C)CCNC(=O)[C@H](CO)NC2` , what IC50 is on record?
### Response 2.04
